Values were extracted from ChEMBL document CHEMBL4706526.

measurement_description: Binding affinity to HIV-1NL4-3 15N-labeled C-terminal domain CA-SP1-NC at E233 residue cleavage site of Gag-Pol protein harboring W184A/M185A mutant expressed in Escherichia coli by 1H-15N SOFAST-HMQC spectroscopic analysis
Parameters: species or system Human immunodeficiency virus 1
pKd: −log10 of the molar value.
measure: pKd

chemical_string | quantitative_readout
C=C(C)[C@@H]1CC[C@]2(C(=O)NCCN)CC[C@]3(C)[C@@H](CC[C@@H]4[C@@]5(C)CC[C@H](OC(=O)CC(C)(C)C(=O)O)C(C)(C)[C@@H]5CC[C@]43C)[C@@H]12 | 3.63

* * *

measurement_description: Binding affinity to HIV-1NL4-3 15N-labeled C-terminal domain CA-SP1-NC at S236 residue cleavage site of Gag-Pol protein harboring W184A/M185A mutant expressed in Escherichia coli by 1H-15N SOFAST-HMQC spectroscopic analysis
Design: species or system Human immunodeficiency virus 1

chemical_string | uom | Kd
C=C(C)[C@@H]1CC[C@]2(C(=O)NCCN)CC[C@]3(C)[C@@H](CC[C@@H]4[C@@]5(C)CC[C@H](OC(=O)CC(C)(C)C(=O)O)C(C)(C)[C@@H]5CC[C@]43C)[C@@H]12 | µM | 180
